- EXPERIMENTAL_DETAILS: Metabolic stability in mouse liver microsomes assessed as clearance
- Format: ADME, Microsome
- TEST_CONTEXT: read-out: CLH
MEASUREMENT_NAME: CLint scaled (mL/min/kg)
Number only, in mL/min/kg; omit the unit.

Answered cases to consult:
[[record]]
item_smiles = "CS(=O)(=O)c1ccc(-c2nc(C(=O)NCc3cn(-c4cc(NC5CC(F)(F)C5)ccn4)nn3)cs2)cc1"
unit_of_measure = "mL/min/kg"
reported_result = 166

[[record]]
item_smiles = "CS(=O)(=O)c1ccc(-c2ncc(C(=O)NCc3cn(-c4cc(NC5CC(F)(F)C5)ccn4)nn3)s2)cc1"
unit_of_measure = "mL/min/kg"
reported_result = 142


We next turn to a different molecule, shown below.
The measured CLint scaled associated with `CS(=O)(=O)c1ccc(-c2ncc(C(=O)NCc3cn(-c4cc(N5CCC(F)(F)CC5)ccn4)nn3)s2)cc1` reads 92.1

---

- MEASURED_TARGET: P2X purinoceptor 7 (Mus musculus)
- EXPERIMENTAL_DETAILS: Antagonist activity against mouse P2X7 receptor expressed in ATP-stimulated HEK293 cells assessed as influx of PI at 1 uM by fluorescence dye uptake assay relative to control
- Format: cell-based
- Design: scale not given: the % may be the effect or the level left
The source made the active and inactive calls. No cut-off for these calls is given here.
MEASUREMENT_NAME: Activity

Field: example entries. Status: answers known.
[[record]]
item_smiles = "CS(=O)(=O)c1ccc(-c2nc(C(=O)NCc3cn(-c4ccncc4Br)nn3)cs2)cc1"
reported_result = "39.5%"

[[record]]
item_smiles = "CS(=O)(=O)c1ccc(-c2ncc(C(=O)NCc3cn(-c4ccnc(Br)c4)nn3)s2)cc1"
reported_result = "inactive"

[[record]]
item_smiles = "CS(=O)(=O)c1ccc(-c2nc(C(=O)NCc3cn(-c4cc(-c5cncc(C(F)(F)F)c5)ccn4)nn3)cs2)cc1"
reported_result = "32.5%"

[[record]]
item_smiles = "CS(=O)(=O)c1ccc(-c2ncc(C(=O)NCc3cn(-c4cc(Nc5cnn(C(F)F)c5)ccn4)nn3)s2)cc1"
reported_result = "32.5%"

[[record]]
item_smiles = "COc1ccnc(-n2cc(CNC(=O)c3csc(-c4ccc(S(C)(=O)=O)cc4)n3)nn2)c1"
reported_result = "20.2%"


Short answer for `CS(=O)(=O)c1ccc(-c2nc(C(=O)NCc3cn(-c4ccc(F)cn4)nn3)cs2)cc1` : Activity was 48.4%

---

- EXPERIMENTAL_DETAILS: Half life in male BALB/c mouse at 10 mg/kg, po single administration measured upto 72 hrs by LC-MS/MS analysis
- Type: ADME, organism-based
- TEST_CONTEXT: in vivo
Rule: half-life under 5 h gives f, otherwise t.

Reference set (6 entries):
[[record]]
item_smiles = "CS(=O)(=O)c1ccc(-c2nc(C(=O)NCc3cn(-c4cc(C(F)(F)F)ccn4)nn3)cs2)cc1"
answer_label = "f"

[[record]]
item_smiles = "C[C@@H](NC(=O)c1csc(-c2ccc(S(C)(=O)=O)cc2)n1)c1cn(-c2cc(C(F)(F)F)ccn2)nn1"
answer_label = "t"

[[record]]
item_smiles = "C[C@@H](NC(=O)c1cnc(-c2ccc(S(C)(=O)=O)cc2)s1)c1cn(-c2cc(C(F)(F)F)ccn2)nn1"
answer_label = "f"

[[record]]
item_smiles = "CS(=O)(=O)c1ccc(-c2ncc(C(=O)NCc3cn(-c4cc(C(F)(F)F)ccn4)nn3)s2)cc1"
answer_label = "f"

[[record]]
item_smiles = "C[C@H](NC(=O)c1csc(-c2ccc(S(C)(=O)=O)cc2)n1)c1cn(-c2cc(C(F)(F)F)ccn2)nn1"
answer_label = "t"

[[record]]
item_smiles = "C[C@H](NC(=O)c1cnc(-c2ccc(S(C)(=O)=O)cc2)s1)c1cn(-c2cc(C(F)(F)F)ccn2)nn1"
answer_label = "t"


Please examine the following record next.
input: # bool: half-life of `CS(=O)(=O)c1ccc(-c2nc(C(=O)NCc3cn(-c4cc(Br)ccn4)nn3)cs2)cc1` >= 5 h
output: f
